# System: HCT-15 colon
# method description: NCI-60 one-dose screen, 48 h
# assay setup: 10 µM unless noted
Compounds without any hit were thinned out: in the full panel of roughly 83,000, 20% have a hit. Activity calls are given as the source filed them. The calls were made as follows: active = growth percent below 10; inactive = the rest.
Output constraint: value belongs to true = active, false = inactive

Solved entries (count: 3):
COc1cnc2c(c1)C(=O)c1c-2n(CCCNC2=NCCS2)c(=O)c2cc(F)ccc12: false
c1ccc2nc(N/N=C3\CCCCC3C3CCCCC3)ccc2c1 (centres undefined): false
O=C(CNC(=O)c1cccc2ccccc12)Nc1ccccc1Cc1ccccc1: false

Which outcome was assigned to C[C@H](C(=O)N[C@@H](Cc1ccc(-c2ccccc2)cc1)C(=O)NC1CC(C)(C)N(C)C(C)(C)C1)c1ccc(-c2ccccc2)c(F)c1 in this test? true

Try this molecule too: CCOC(=O)C(Br)=P(c1ccccc1)(c1ccccc1)c1ccccc1 false

Try this molecule too: C[N+]1(C)C2CC[C@@H]1CC(OC(=O)C(O)c1ccccc1)C2 (some centres undefined) false

Try this molecule too: O=C(O)c1ccc(CNS(=O)(=O)c2ccc3ccccc3c2)cc1 false

Try this molecule too: NC(=NCCCCCCN=C(N)/N=C(\N)Nc1ccc(Cl)cc1)/N=C(\N)Nc1ccc(Cl)cc1 false

====

# Test system: MDA-MB-435 melanoma
# method description: NCI-60 one-dose screen, 48 h
# assay setup: 10 µM unless noted
The panel holds about 83,000 compounds, 20% with a hit somewhere; the sample as a whole holds those more often. Activity calls are given as the source filed them. How the source made its calls: active means growth percent below 10; inactive means the rest.
Output constraint: value belongs to y for active, n for inactive

COc1ccc(Oc2ccccc2NC(=O)CNC(=O)c2cccc3ccccc23)cc1: y
Cc1ccc(-c2c3c(N)nc(-c4ccncc4)nc3nc3c2c(C)nn3-c2ccccc2)cc1: n
CCCCc1n(Cc2ccc3ccccc3c2)cc[n+]1Cc1ccc2ccccc2c1: y

Which outcome was assigned to CCCCCCCCCCNCCSS(=O)(=O)O in this test? n

Try this compound too: c1ccc(CN=C(NCc2ccccc2)NCc2ccccc2)cc1 n

Try this compound too: CC(=O)Nc1ccc(C(=O)COc2ccc(/C=C3\CCc4ccccc4C3=O)cc2)cc1 n

Try this compound too: COc1ccc(/C=C/C(=O)c2cccc(NS(C)(=O)=O)c2)cc1 n

Try this compound too: COc1cc(/C=N/OC(=O)Nc2ccccc2)cc(OC)c1OC n

Try this compound too: O=C(c1ccccc1)C(CN1CCCCC1)c1ccccc1 (centres undefined) n

Try this compound too: CCCCN1c2nc3ccccc3cc2Sc2cc3ccccc3nc21 n

Try this compound too: Cc1c2oc3c(C)ccc(C(=O)OC(C)C4NC(=O)C(C(C)C)N(C)C(=O)CN(C)C(=O)C5CCCN5C(=O)C(C(C)C)NC4=O)c3nc-2c(C(=O)OC(C)C2NC(=O)C(C(C)C)N(C)C(=O)CN(C)C(=O)C3CCCN3C(=O)C(C(C)C)NC2=O)c(N)c1=O (centres undefined) y

Try this compound too: COc1ccc2c(=O)c(OC)c(-c3cc(OC)c(OC)c(OC)c3)oc2c1 n

Try this compound too: COc1cc(C2CC(C3C(=O)N(C)C(=O)N(C)C3=O)=NN2c2cc(Cl)cc(Cl)c2)cc(OC)c1OC (centres undefined) n

Try this compound too: COc1ccc(C2=NN(C(C)=O)C(c3cccc(Nc4ccnc5cc(Cl)ccc45)c3)C2)cc1 (centres undefined) n

====

# Tested on: K-562 leukemia
# method description: NCI-60 one-dose screen, 48 h
# assay setup: 10 µM unless noted
# Method: Cells are grown in 96 well plates and exposed to the test compound for 48 hours. Compounds are tested at a single concentration, which is 10^-5 M for most compounds. The reported endpoint is percent growth (GI% or GIPRCNT), where numbers from 0 - 100% represent growth inhibition, and numbers from -100% - 0 represent cell death. For example, a value of 40 represents 60% growth inhibition. A value of 0 means no net growth occurred over the course of the experiment. […]
The panel holds about 83,000 compounds, 20% with a hit somewhere; the sample as a whole holds those more often. Activity calls are given as the source filed them. Rule for the calls: active = growth percent below 10; inactive = the rest.
Output constraint: value belongs to active, inactive

Solved entries (count: 10):
C/C(=C\CCc1ccsc1)CC/C=C(\C)CCCN1CCSCC1: inactive
O=C(COc1cccc(/C=C2\Oc3ccc4ccccc4c3C2=O)c1)c1ccc([N+](=O)[O-])cc1: inactive
CN(C)c1ccc(-c2nc3ncc(Br)cc3o2)cc1: inactive
Cc1sc2nc(NCCc3cccs3)[nH]c(=O)c2c1C: inactive
CC(C)N(Cc1ccccc1)c1c(S)ssc1=S: inactive
Cc1ccc(C(NC(=O)c2ccccc2)c2ccc3cccnc3c2O)cc1 (configuration not stated): inactive
CC(=O)Nc1cc(C(c2ccccc2)c2ccccc2)cc(C(c2ccccc2)c2ccccc2)c1C: inactive
CCCCCN1C(=O)CCC1=O: inactive
N#Cc1c(-c2ccccc2)cc(-c2ccccc2)n(CCC(=O)O)c1=O: inactive
C[C@@H]1CN(c2nc3c(cc2F)c(=O)c(C(=O)O)cn3C(C)(C)C)C[C@H](C)N1: inactive

Which outcome was assigned to CCCCCCC(CC#N)(CCC)CCCC (configuration not stated) in this test? inactive

Try this molecule too: O=C(Oc1ccccc1)C(Br)C(Br)c1ccccc1 (configuration not stated) active

Try this molecule too: O=C1c2cc3c(cc2-c2c1c1ccc(Cl)cc1c(=O)n2CCCNCCO)OCO3 active

====

# Test system: MALME-3M melanoma
# method description: NCI-60 one-dose screen, 48 h
# assay setup: 10 µM unless noted
# Procedure: Cells are grown in 96 well plates and exposed to the test compound for 48 hours. Compounds are tested at a single concentration, which is 10^-5 M for most compounds. The reported endpoint is percent growth (GI% or GIPRCNT), where numbers from 0 - 100% represent growth inhibition, and numbers from -100% - 0 represent cell death. For example, a value of 40 represents 60% growth inhibition. A value of 0 means no net growth occurred over the course of the experiment. […]
Compounds without any hit were thinned out: in the full panel of roughly 83,000, 20% have a hit. Activity calls are given as the source filed them. How the source made its calls: active means growth percent below 10; inactive means the rest.
Output constraint: value belongs to active, inactive

Solved entries (count: 7):
C=C1CC[C@@H]2[C@](C)(COC(C)=O)[C@H](OC(C)=O)CC[C@@]2(C)[C@@H]1CC(NCc1ccccc1)C1=CCOC1=O (stereo partly drawn): inactive
COc1cc(-c2nc3nc4sc(C)c(C)c4c(=O)n3[nH]2)cc(OC)c1OC: inactive
CCCCc1ccc(C(N)=O)nc1: inactive
COc1ccc(N2CCN(CC(=O)N3CCN(c4nnc(-c5ccc(Cl)cc5)c(-c5ccc(Cl)cc5)n4)CC3)CC2)cc1: inactive
O=C(COc1cccc(/C=C2\Oc3ccc4ccccc4c3C2=O)c1)c1ccc(Cl)cc1: inactive
O=C1/C(=C/c2ccccc2Cl)CCc2ccccc21: inactive
CCC(C)C1NC(=O)C(CCNCS(=O)(=O)O)NC(=O)C(NC(=O)C(CCNCS(=O)(=O)O)NC(=O)C(NC(=O)C(CCNCS(=O)(=O)O)NC(=O)CCCCC(C)C)C(C)O)CCNC(=O)C(C(C)O)NC(=O)C(CCNCS(=O)(=O)O)NC(=O)C(CCNCS(=O)(=O)O)NC(=O)C(C(C)CC)NC1=O (stereo not drawn): inactive

Okay, next one:
Which outcome was assigned to FCc1ncc(-c2ccc(C(F)(F)F)cc2)c(NC2CCCCCC2)n1 in this test? active

====

# Test system: SF-268 CNS
# method description: NCI-60 one-dose screen, 48 h
# assay setup: 10 µM unless noted
Compounds without any hit were thinned out: in the full panel of roughly 83,000, 20% have a hit. Active and inactive are the calls of the source. Rule for the calls: active = growth percent below 10; inactive = the rest.
Output constraint: value belongs to yes = active, no = inactive

CCC(=O)Nc1cc2c(cc1Cl)-c1ccccc1C2: no
O=C(Nc1ccccc1)c1cc(-n2cnc([N+](=O)[O-])c2)cc(-n2cnc([N+](=O)[O-])c2)n1: no
Cn1cnc([N+](=O)[O-])c1Sc1nc(N)nc2nc[nH]c12: no
Oc1ccccc1/C=N/N1CCCCCC1: no
O=C(O)c1ccc(CNS(=O)(=O)c2ccc3ccccc3c2)cc1: no
CCOC(=O)N1CCC(N=C2CSc3nnc(-c4cc(C(F)(F)F)cc(C(F)(F)F)c4)n3N2)CC1: no
FC(F)(F)c1cc(-c2nnc3n2N=C(N2CCCC2)CS3)cc(C(F)(F)F)c1: no
C[N+]1(C)C2CC[C@@H]1CC(OC(=O)C(O)c1ccccc1)C2 (stereo partly specified): no

Which outcome was assigned to O=C(CNC(=O)c1cccc2ccccc12)Nc1ccccc1Cc1ccccc1 in this test? no

Try this molecule too: CC1C(=O)NC2=Nc3ccccc3C(=O)NN21 (stereo unspecified) no

Try this molecule too: CCSc1nc(-c2cccs2)n2nc(-c3ccco3)cc2n1 no

Try this molecule too: O=C(NC1CCS(=O)(=O)C1)c1ccc(C(=O)c2ccccc2)cc1 (stereo unspecified) no

Try this molecule too: COc1cnc2c(c1)C(=O)c1c-2n(CCCNC(C)C)c(=O)c2cc(F)ccc12 yes
